target: DCN1 (DCUND1) protein PONY domain (Homo sapiens (Human)); assay: TR-FRET assay, DCN1 binding with FAM-labeled probe; conditions: 24 hr after treatment with compound; read-out: TR FRET IC50 24 hr
QUANTITY_KIND: IC50

COMPOUND	READING
CCN1C(=O)[C@H](NC(=O)c2cccc(C(F)(F)F)c2)[C@H](c2ccc(F)cc2)c2c(C(=O)N3CCC[C@H]3C#N)nn(C3CC3)c21 [Compound I-558]	1 to 3 µM
C#C[C@@H]1CCCN1C(=O)c1nn(C2CCOCC2)c2c1[C@H](C1CC1)[C@H](NC(=O)c1cccc(C(F)(F)F)c1)C(=O)N2CC [Compound I-594]	1 to 3 µM
CCN1C(=O)[C@@H](NC(=O)c2cccc(C(F)(F)F)c2)[C@@H](c2ccc(F)cc2)c2c(C/C=C/C(=O)NCCCO)nn(-c3ccccc3)c21 (racemic) [Compound I-24]	1 to 3 µM
CCN1C(=O)[C@@H](NC(=O)c2cccc(C(F)(F)F)c2)[C@@H](c2ccc(F)cc2)c2c(C(=O)N3C[C@H](F)C[C@H]3C#N)nn(C3CCOCC3)c21 [Compound I-360]	≤ 0.2 µM

====

molecular target: DCN1 (DCUND1) protein PONY domain (Homo sapiens (Human), UniProt Q96GG9); assay: TR-FRET assay, DCN1 binding with FAM-labeled probe; details: 24 hr after treatment with compound; read-out: TR FRET IC50 24 hr
Sequence (Q96GG9 60-248): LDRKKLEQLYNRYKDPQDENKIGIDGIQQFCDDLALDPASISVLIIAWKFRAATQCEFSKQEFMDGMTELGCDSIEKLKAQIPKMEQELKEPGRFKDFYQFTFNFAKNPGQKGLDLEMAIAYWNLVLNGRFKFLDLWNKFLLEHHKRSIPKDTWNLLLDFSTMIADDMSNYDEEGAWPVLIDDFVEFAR
pIC50: −log10 of the molar value.
Known pIC50 of a selection of molecules
QUANTITY_KIND: pIC50

MOLECULE	QUANTITY_KIND	READING
CCN1C(=O)[C@H](NC(=O)c2cccc(C(F)(F)F)c2)[C@H](C2CC2)c2c(C(=O)N(C)C(C)C#N)nn(-c3ccccc3)c21 (stereo partly drawn)	pIC50	5.52 to 6.00
CCN1C(=O)[C@@H](NC(=O)c2cccc(C(F)(F)F)c2)[C@@H](c2ccc(F)cc2)c2c([C@@H](CCO)NC#N)nn(-c3ccccc3)c21 (mixture of isomers)	pIC50	5.52 to 6.00
CCN1C(=O)[C@@H](NC(=O)c2cccc(C(F)(F)F)c2)[C@@H](C2CC2)c2c(C(=O)N(C)[C@@H](C)C#N)nn(C3CCOCC3)c21	pIC50	≥ 6.70
CCN1C(=O)[C@@H](NC(=O)c2cccc(C(F)(F)F)c2)[C@@H](c2ccc(F)cc2)c2c(C(=O)N(C)[C@@H](C#N)CCN3CC4CCC(C3)O4)nn(-c3ccccc3)c21 (mixture of isomers)	pIC50	≥ 6.70
CCN1C(=O)[C@@H](NC(=O)c2cccc(C(F)(F)F)c2)[C@@H](C2CCCC2)c2c(C(=O)N(C)[C@@H](C)C#N)nn(C3CCOCC3)c21	pIC50	≥ 6.70
CCN1C(=O)[C@@H](NC(=O)c2cccc(C(F)(F)F)c2)[C@@H](c2ccc(F)cc2)c2c(C(=O)N(C)[C@H](C)C#N)nn(-c3ccccc3)c21 (single isomer, unassigned)	pIC50	≥ 6.70
CCN1C(=O)[C@@H](NC(=O)c2cccc(C(F)(F)F)c2)[C@@H](c2ccc(F)cc2)c2c(CNC(=O)C#CCN(C)C)nn(-c3ccccc3)c21 (racemic)	pIC50	≥ 6.70
CCN1C(=O)[C@@H](NC(=O)c2cccc(C(F)(F)F)c2)[C@@H](c2ccc(F)cc2)c2c(CN(C#N)CCF)nn(-c3ccccc3)c21 (racemic)	pIC50	6.00 to 6.70
CCN1C(=O)[C@@H](NC(=O)CN2CC(c3ccccc3)CC2=O)[C@@H](C2CC2)c2c(C(=O)N3[C@H](C#N)C[C@H]4C[C@H]43)nn(C3CCOCC3)c21 (stereo partly drawn)	pIC50	5.52 to 6.00
C=C(C(=O)NCc1nn(-c2ccccc2)c2c1[C@@H](c1ccc(F)cc1)[C@H](NC(=O)c1cccc(C(F)(F)F)c1)C(=O)N2CC)C(C)N1CCOCC1 (mixture of isomers)	pIC50	≥ 6.70
CCN1C(=O)[C@@H](NC(=O)c2cccc(C(F)(F)F)c2)[C@@H](c2ccc(F)cc2)c2c(NC(=O)C(F)Cl)nn(-c3ccccc3)c21 (mixture of isomers)	pIC50	6.00 to 6.70
CCN1C(=O)[C@@H](NC(=O)c2cccc(C(F)(F)F)c2)[C@@H](C2CC2)c2c(C(=O)N3CCNC[C@@H]3C#N)nn(-c3ccccc3)c21 (single isomer, unassigned)	pIC50	≥ 6.70
CCN1C(=O)[C@@H](NC(=O)c2cccc(C(F)(F)F)c2)[C@@H](c2ccc(F)cc2)c2c(C(=O)N(CC#N)C3CC3)nn(C3CCOCC3)c21	pIC50	≥ 6.70
CCN1C(=O)[C@@H](NC(=O)c2cccc(C(F)(F)F)c2)[C@@H](c2ccc(F)cc2)c2c(C(=O)N(C)[C@H](C#N)CCN(C)C)nn(C3CCOCC3)c21	pIC50	≥ 6.70
CCN1C(=O)[C@@H](NC(=O)c2cccc(C(F)(F)F)c2)[C@@H](c2ccc(F)cc2)c2c(C(=O)N3CS(=O)(=O)C[C@H]3C#N)nn(-c3ccccc3)c21	pIC50	≥ 6.70

====

Known pIC50 of a selection of compounds
Target: DCN1 (DCUND1) protein PONY domain (Homo sapiens (Human), UniProt Q96GG9)
Assay: TR-FRET assay, DCN1 binding with FAM-labeled probe
Settings: 24 hr after treatment with compound; read-out: TR FRET IC50 24 hr
Method: A TR-FRET assay was performed to evaluate the ability of the compounds to bind the DCN-1 protein. The TR-FRET assay was designed following the Scott et al. protocol (Scott et al., Nat Chem Biol. 2017 August; 13(8): 850-857. Doi:10.1038/nchembio.2386). […] The TR-FRET ratio between Tb-DCN1 and the FAM-labeled probe was measured in a 384-well opti-plate (Perkin Elmer) using a plate reader (BMG) at 1, 5, and 24 hrs after treatment with compound (final DMSO concentration of 0.1%).
pIC50: −log10 of the molar value.
QUANTITY_KIND: pIC50

In [3]: df
Out[3]:
                                   compound       reading
0  C/C=C/C(=O)N[C@@H](C)c1nn(-c2ccccc2)c2c1[C@H](c1ccc(F)cc1)[C@H](NC(=O)c1cccc(C(F)(F)F)c1)C(=O)N2CC (mixture of isomers)  5.52 to 6.00
1  CCN1C(=O)[C@@H](NC(=O)[C@@H]2CCN(Cc3ccccc3)C2)[C@@H](C2CC2)c2c(C(=O)N3[C@H](C#N)C[C@H]4C[C@H]43)nn(C3CCOCC3)c21  5.52 to 6.00
2  CCN1C(=O)[C@@H](NC(=O)c2cccc(C(F)(F)F)c2)[C@@H](c2ccc(F)cc2)c2c([C@@H](CCCO)NC#N)nn(-c3ccccc3)c21        ≥ 6.70
3  CCN1C(=O)[C@@H](NC(=O)c2cccc(C(F)(F)F)c2)[C@@H](c2ccc(F)cc2)c2c(C(=O)N(CC#N)CCN(C)C3COC3)nn(-c3ccccc3)c21 (racemic)        ≥ 6.70

====

biological target: DCN1 (DCUND1) protein PONY domain (Homo sapiens (Human)); assay: TR-FRET assay, DCN1 binding with FAM-labeled probe; conditions: TR FRET IC50 1 hr (nM), 1 hr after treatment with compound
Known IC50 of a selection of compounds

COMPOUND	TARGET_UNDER_TEST	IC50
CCN1C(=O)[C@@H](NC(=O)c2cccc(C(F)(F)F)c2)[C@@H](c2ccc(F)cc2)c2c(C(C)(C)NC#N)nn(-c3ccccc3)c21 (racemic)	DCN1 (DCUND1) protein PONY domain (Homo sapiens (Human))	1000 to 3000 nM
N#C[C@@H]1C[C@H]2C[C@H]2N1C(=O)c1nn(C2CCOCC2)c2c1[C@H](C1CC1)[C@H](NC(=O)c1cccc(C(F)(F)F)c1)C(=O)N2 (mixture of isomers)	DCN1 (DCUND1) protein PONY domain (Homo sapiens (Human))	1000 to 3000 nM
CCN1C(=O)[C@H](NC(=O)c2cccc(C(F)(F)F)c2)[C@H](C2CC2)c2c(C(=O)N(C)C(C)C#N)nn(C3CCOCC3)c21 (mixture of isomers)	DCN1 (DCUND1) protein PONY domain (Homo sapiens (Human))	1000 to 3000 nM
CCN1C(=O)[C@@H](NC(=O)c2cccc(C(F)(F)F)c2)[C@@H](c2ccc(F)cc2)c2c(CNC(=O)/C=C/C(N)=O)nn(-c3ccccc3)c21 (racemic)	DCN1 (DCUND1) protein PONY domain (Homo sapiens (Human))	1000 to 3000 nM
CCN1C(=O)[C@@H](NC(=O)c2cccc(C(F)(F)F)c2)[C@@H](c2ccc(F)cn2)c2c(C(=O)N3CCC[C@H]3C#N)nn(-c3ccccc3)c21 (mixture of isomers)	DCN1 (DCUND1) protein PONY domain (Homo sapiens (Human))	1000 to 3000 nM
CCN1C(=O)[C@@H](NC(=O)c2cccc(C(F)(F)F)c2)[C@@H](c2ccc(F)cc2)c2c(C(=O)N[C@@H](C)C#N)nn(-c3ccccc3)c21	DCN1 (DCUND1) protein PONY domain (Homo sapiens (Human))	200 to 1000 nM
